Reference for the values: paper PMC9966414

- target-under-test: Kir6.2/SUR1 (Homo sapiens, UniProt Q09428+Q14654)
- Construct: full-length human subunits co-expressed stably in HEK293 cells; GenScript vectors; four Kir6.2 plus four SUR1
- Sequence (Q14654 whole entry): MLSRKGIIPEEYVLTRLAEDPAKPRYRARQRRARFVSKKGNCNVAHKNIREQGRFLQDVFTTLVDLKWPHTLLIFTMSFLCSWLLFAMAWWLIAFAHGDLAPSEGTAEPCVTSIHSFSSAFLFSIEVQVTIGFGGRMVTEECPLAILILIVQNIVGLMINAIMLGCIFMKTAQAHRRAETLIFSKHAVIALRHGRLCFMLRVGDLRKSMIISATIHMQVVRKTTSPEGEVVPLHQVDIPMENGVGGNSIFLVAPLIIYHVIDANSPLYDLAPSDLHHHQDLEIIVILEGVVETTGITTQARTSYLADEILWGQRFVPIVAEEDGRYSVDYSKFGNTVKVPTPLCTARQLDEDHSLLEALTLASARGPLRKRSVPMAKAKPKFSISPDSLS
- Sequence (Q09428 whole entry): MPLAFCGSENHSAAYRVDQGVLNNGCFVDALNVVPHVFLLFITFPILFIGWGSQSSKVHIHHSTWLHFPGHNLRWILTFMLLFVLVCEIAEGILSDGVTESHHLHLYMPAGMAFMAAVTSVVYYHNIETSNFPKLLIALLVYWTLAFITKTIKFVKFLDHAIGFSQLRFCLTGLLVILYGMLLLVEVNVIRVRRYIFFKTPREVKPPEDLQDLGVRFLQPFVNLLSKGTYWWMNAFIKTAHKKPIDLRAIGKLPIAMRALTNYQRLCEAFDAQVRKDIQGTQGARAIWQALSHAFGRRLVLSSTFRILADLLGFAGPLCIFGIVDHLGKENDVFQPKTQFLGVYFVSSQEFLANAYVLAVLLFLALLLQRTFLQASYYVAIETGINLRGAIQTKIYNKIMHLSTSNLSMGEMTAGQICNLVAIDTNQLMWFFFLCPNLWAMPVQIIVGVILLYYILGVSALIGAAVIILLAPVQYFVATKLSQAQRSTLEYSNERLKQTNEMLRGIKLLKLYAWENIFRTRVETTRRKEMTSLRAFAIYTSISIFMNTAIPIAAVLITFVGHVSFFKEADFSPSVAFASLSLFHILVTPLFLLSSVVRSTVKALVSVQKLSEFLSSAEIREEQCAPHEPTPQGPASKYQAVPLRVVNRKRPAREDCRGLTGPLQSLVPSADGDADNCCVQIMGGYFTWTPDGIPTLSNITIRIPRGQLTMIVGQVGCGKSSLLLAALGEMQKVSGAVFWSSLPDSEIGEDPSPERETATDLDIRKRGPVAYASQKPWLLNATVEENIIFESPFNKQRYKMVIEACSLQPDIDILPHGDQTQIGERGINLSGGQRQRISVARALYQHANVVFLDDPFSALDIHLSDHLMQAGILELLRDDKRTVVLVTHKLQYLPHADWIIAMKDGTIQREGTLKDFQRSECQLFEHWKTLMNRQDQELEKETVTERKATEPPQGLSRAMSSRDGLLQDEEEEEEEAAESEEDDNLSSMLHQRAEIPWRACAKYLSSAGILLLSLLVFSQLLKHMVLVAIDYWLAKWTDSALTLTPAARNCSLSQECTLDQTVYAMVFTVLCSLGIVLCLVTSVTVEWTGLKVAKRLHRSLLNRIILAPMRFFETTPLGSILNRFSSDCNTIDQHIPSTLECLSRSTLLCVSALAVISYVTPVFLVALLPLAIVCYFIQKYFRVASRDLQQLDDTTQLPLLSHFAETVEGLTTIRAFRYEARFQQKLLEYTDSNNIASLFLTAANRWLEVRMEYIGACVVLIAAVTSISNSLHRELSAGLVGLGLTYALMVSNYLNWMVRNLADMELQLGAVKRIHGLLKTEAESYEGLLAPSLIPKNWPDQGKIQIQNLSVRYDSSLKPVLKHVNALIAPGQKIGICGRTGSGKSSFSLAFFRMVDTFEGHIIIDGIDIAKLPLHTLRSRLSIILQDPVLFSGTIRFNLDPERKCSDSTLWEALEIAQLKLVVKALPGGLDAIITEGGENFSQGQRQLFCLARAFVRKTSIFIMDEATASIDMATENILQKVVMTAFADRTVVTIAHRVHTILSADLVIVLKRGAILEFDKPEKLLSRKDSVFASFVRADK
- assay-info: thallium-flux fluorescence assay (FLIPR, BTC/AM)
pIC50: −log10 of the molar value.

# compound, qualifying-sign, pIC50
data = [
    ("CC(C)[C@H]1CC[C@H](C(=O)N[C@H](Cc2ccccc2)C(=O)O)CC1 [Nateglinide]", "=", 7.36),
    ("Cc1c(C)c2c(c(C)c1O)CCC(C)(COc1ccc(CC3SC(=O)NC3=O)cc1)O2 (stereo not drawn)", "=", 4.85),
    ("Cc1ccc(S(=O)(=O)NC(=O)NN2CC3CCCC3C2)cc1 (stereo not drawn) [Gliclazide]", "=", 6.21),
    ("CCOc1cc(CC(=O)N[C@@H](CC(C)C)c2ccccc2N2CCCCC2)ccc1C(=O)O [Repaglinide]", "=", 8.41),
    ("C1CCC(/N=C(\\NC23CC4CC(CC(C4)C2)C3)N2CCOCC2)CC1 [PNU-37883A]", "<", 4.00),
    ("CN(CCOc1ccc(CC2SC(=O)NC2=O)cc1)c1ccccn1 (stereo not drawn)", "<", 4.00),
    ("CCCCNC(=O)NS(=O)(=O)c1ccc(C)cc1 [Tolbutamide]", "=", 5.12),
    ("COc1ccc2c(c1)C(=O)N(CCc1ccc(S(=O)(=O)NC(=O)NC3CCCCC3)cc1)C(=O)C2(C)C", "=", 8.16),
    ("CCC1=C(C)CN(C(=O)NCCc2ccc(S(=O)(=O)NC(=O)N[C@H]3CC[C@H](C)CC3)cc2)C1=O [Glimepiride]", "=", 8.64),
]
